Where do these numbers come from? They come from ChEMBL document CHEMBL1961873.

# Experimental Target: cGMP-dependent protein kinase 1 (Homo sapiens)
# Sequence (whole entry): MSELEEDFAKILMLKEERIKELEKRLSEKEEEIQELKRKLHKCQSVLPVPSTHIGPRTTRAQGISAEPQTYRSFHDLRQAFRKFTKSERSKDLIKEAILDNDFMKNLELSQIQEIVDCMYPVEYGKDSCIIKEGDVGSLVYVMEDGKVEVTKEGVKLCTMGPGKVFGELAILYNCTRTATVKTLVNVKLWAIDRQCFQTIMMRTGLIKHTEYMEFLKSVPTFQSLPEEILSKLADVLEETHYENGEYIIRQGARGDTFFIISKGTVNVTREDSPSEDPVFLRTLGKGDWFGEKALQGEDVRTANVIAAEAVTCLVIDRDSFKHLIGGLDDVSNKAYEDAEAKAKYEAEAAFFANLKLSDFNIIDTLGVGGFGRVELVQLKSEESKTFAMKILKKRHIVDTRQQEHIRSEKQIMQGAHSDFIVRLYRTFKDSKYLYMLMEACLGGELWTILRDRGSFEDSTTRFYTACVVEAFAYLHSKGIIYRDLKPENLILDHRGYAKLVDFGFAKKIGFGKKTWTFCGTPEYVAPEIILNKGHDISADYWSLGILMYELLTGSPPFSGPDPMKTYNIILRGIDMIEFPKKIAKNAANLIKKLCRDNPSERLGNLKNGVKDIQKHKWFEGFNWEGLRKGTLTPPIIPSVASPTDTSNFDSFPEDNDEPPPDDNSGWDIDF
# Experimental Parameters: at 0.1 µM
# Description: GSK_PKIS: PRKG1 mean inhibition at 0.1 uM [Nanosyn]
Assign inhibition to each entry below.
One number for each entry, in %.

Example cases with answers are listed next.
- Cc1cccc2c1NC(=O)/C2=N\Nc1ccc(S(N)(=O)=O)cc1: 0.72
- CN1CCC(n2cnc(-c3ccc(F)cc3)c2-c2ccnc(N)n2)CC1: 0.5

Go through the list and state inhibition for each entry.
1. CS(=O)(=O)CCNCc1coc(-c2ccc3ncnc(Nc4ccc(OCc5ccccc5)cc4)c3c2)c1
2. CN1CCC(n2cnc(-c3ccc(F)cc3)c2-c2ccnc(Nc3ccccc3)n2)CC1
3. COC(=O)c1sc(-n2cnc3cc(OC)c(OC)cc32)cc1OCc1ccccc1C(F)(F)F
4. COc1cccc(-c2c[nH]c3c(N/N=C/c4ccncc4)ncnc23)c1
5. COC(=O)Nc1nc2ccc(S(=O)(=O)c3ccc(NC(=O)Nc4cc(C(F)(F)F)ccc4F)cc3)cc2[nH]1
6. COc1ccc(-c2cc(-c3c[nH]nc3-c3ccccn3)ccn2)cc1
7. NS(=O)(=O)c1ccc(N/N=C2\C(=O)Nc3ccc4ncccc4c32)cc1
8. CC(=O)Nc1cccc(C#Cc2cncnc2Nc2ccc(OCc3cccc(F)c3)c(Cl)c2)c1

Response line:
[1.72, 1.69, 2.01, 2.91, 2.21, 1.9, 4.46, 3.13]

Please give inhibition for each item listed below.
1. CCN(CC)S(=O)(=O)c1ccc(OC)c(Nc2ncc(-c3ccccc3)o2)c1
2. COc1ccc(-c2oc3ncnc(N)c3c2-c2ccc(NC(=O)Nc3cc(C(F)(F)F)ccc3F)cc2)cc1

Response line:
1. 0.75
2. 4.53
